tested on: IGROV1 ovarian; assay: NCI tumour cell line growth inhibition, 48 h; in the data active = GI50 below about 0.43 µM; inactive = the rest
Field 'call' accepts 1.0 for active, 0.0 for inactive

Q) Which outcome was entered for the compound CC(C)(C)c1n[nH]c(=S)n(/N=C/c2ccc(F)c(Oc3ccccc3)c2)c1=O in this test?
A) 0.0

Q) What did the test return for COC(=O)Cn1c2c(c3c(O)cccc31)C(=O)c1ccccc1-2 ?
A) 0.0

Q) Hey, what did the test say about CCN=C1C=CC(=C(c2ccc(N)cc2)c2ccc(N(CC)CC)c(C)c2)C=C1 ?
A) 0.0

Q) I'd appreciate the recorded outcome for COc1cccc(C=Nc2cc(C)ccn2)c1O.COc1cccc(C=Nc2cc(C)ccn2)c1O.[Cu] from this test.
A) 0.0

Q) Write down the call the test reported for this compound. Item: C[C@@H]1CC[C@H]2C(COCCOCC3=C(C(F)(F)F)O[C@@H]4O[C@@]5(C)CC[C@H]6[C@H](C)CC[C@@H]3[C@@]46OO5)=C(C(F)(F)F)O[C@@H]3O[C@@]4(C)CC[C@@H]1[C@]32OO4
A) 0.0

Q) Any idea what this test logged for COc1cc2c(c(OC)c1OC)-c1ncc3cc(OC)c(OC)c(OC)c3c1C2 ?
A) 0.0

Q) In this assay, the call recorded for N#Cc1c(N/N=C/c2c(Cl)cccc2Cl)nc(N)nc1N1CCOCC1 was what?
A) 0.0

Q) I would be grateful if you could indicate the recorded call for N#C/C(=C\c1c(-c2ccccc2)[nH]c2ccccc12)S(=O)(=O)c1ccccc1 .
A) 0.0

Q) Per the records of this test, what outcome belongs to CCN1CCC(CCOC)(CN2c3ccccc3Sc3ccc(Cl)cc32)C1 (centres undefined) ?
A) 0.0

Q) Called result for Cn1c2c(cc(S(=O)(=O)c3ccccc3)c1=O)CCc1c-2cnn1-c1ccc(Cl)cc1
A) 0.0

Q) What did the test return for CC(CN1CCN(CCOCCO)CC1)CN1c2ccccc2Sc2ccc(Cl)cc21 (centres undefined) ?
A) 0.0

Q) Which outcome was entered for the compound O=C1c2ccccc2-c2c1c1ccc([N+](=O)[O-])cc1c(=O)n2CCCBr in this test?
A) 0.0

Q) # outcome recorded in this test, key = Cc1cc(N/N=C/c2nc(-c3ccc(Br)cc3)oc2C)c2cc(Cl)ccc2n1
A) 0.0

Q) // return assay outcome for Cc1cc2c3ccc(C)[n+](C)c3ccc2n1C
A) 0.0

Q) Per the records of this test, what outcome belongs to COC(=O)C(Cc1ccccc1)NC(=O)NC(=O)NC(=O)CI (centres undefined) ?
A) 0.0

Q) What classification did O=[N+]([O-])c1cccc(-c2nc3sccn3c2-c2ccnc(NCCCNS(=O)(=O)c3cccc(F)c3)n2)c1 end up with in this test?
A) 0.0

Q) # outcome recorded in this test, key = COc1ccc2cc(-c3ccoc(=O)c3-c3cc(OC)c(OC)c(OC)c3)ccc2c1
A) 1.0

Q) In this assay, the call recorded for CN1CCN(Cc2ccc(NC(=O)c3cncc(C#Cc4cnc(N)c5ccncc45)c3)cc2C(F)(F)F)CC1 was what?
A) 1.0

Q) For N=C(N)c1ccc(N2CCCN(c3ccc(C(=N)N)cc3)CC2)cc1 , what call appears in the results of this test?
A) 0.0

Sourced from PubChem BioAssay (NCI)
